Biological target: T1, FZD6 cysteine-rich domain (CRD), MYC-tagged and GPI-anchored on CHO cells (human, UniProt O60353 20-146, GPI anchor)
T1 construct: also called FZD6 CRD; CHO-myc-FZDGPI; not shown: MYC tag and GPI anchor signal
T1 sequence: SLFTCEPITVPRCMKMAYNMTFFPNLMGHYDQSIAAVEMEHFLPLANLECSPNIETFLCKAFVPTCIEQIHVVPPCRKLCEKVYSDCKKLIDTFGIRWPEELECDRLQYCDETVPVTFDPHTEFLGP
Assay: flow cytometry, CHO-CRD cells;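 further: flow cytometry of Fab binding to CHO cells overexpressing a Frizzled CRD, with binding defined as median fluorescence over twice that of CHO cells lacking any Frizzled CRD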
Collected median fluorescence values appear next to each entry.

BINDER	median fluorescence
Fab-2925 (Fab, V domains shown, Fab; also called Fv-2925) VH: EVQLVESGGGLVQPGGSLRLSCAASGFNLSYSSMHWVRQAPGKGLEWVASIYPSYGSTYYADSVKGRFTISADTSKNTAYLQMNSLRAEDTAVYYCARYGYFGLDYWGQGTLVTVSS VL: DIQMTQSPSSLSASVGDRVTITCRASQSVSSAVAWYQQKPGKAPKLLIYSASSLYSGVPSRFSGSRSGTDFTLTISSLQPEDFATYYCQQAWVYASLFTFGQGTKVEIK	3.05
Fab-2907 (Fab, V domains shown, Fab; also called Fv-2907) VH: EVQLVESGGGLVQPGGSLRLSCAASGFNIYSSYMHWVRQAPGKGLEWVASISSYSGSTYYADSVKGRFTISADTSKNTAYLQMNSLRAEDTAVYYCARSSWGAYIVSYGFDYWGQGTLVTVSS VL: DIQMTQSPSSLSASVGDRVTITCRASQSVSSAVAWYQQKPGKAPKLLIYSASSLYSGVPSRFSGSRSGTDFTLTISSLQPEDFATYYCQQVGYWWGLITFGQGTKVEIK	3.06
Fab-2916 (Fab, V domains shown, Fab) VH: EVQLVESGGGLVQPGGSLRLSCAASGFNISYSSIHWVRQAPGKGLEWVASIYPSYSYTYYADSVKGRFTISADTSKNTAYLQMNSLRAEDTAVYYCARYGYYGMDYWGQGTLVTVSS VL: DIQMTQSPSSLSASVGDRVTITCRASQSVSSAVAWYQQKPGKAPKLLIYSASSLYSGVPSRFSGSRSGTDFTLTISSLQPEDFATYYCQQWYHYPYLITFGQGTKVEIK	3.49
Fab-2900 (Fab, V domains shown, Fab; also called Fv-2900) VH: EVQLVESGGGLVQPGGSLRLSCAASGFNLSSYYIHWVRQAPGKGLEWVASISSSSSSTSYADSVKGRFTISADTSKNTAYLQMNSLRAEDTAVYYCARGALDYWGQGTLVTVSS VL: DIQMTQSPSSLSASVGDRVTITCRASQSVSSAVAWYQQKPGKAPKLLIYSASSLYSGVPSRFSGSRSGTDFTLTISSLQPEDFATYYCQQWYSGSSLFTFGQGTKVEIK	3.37
Fab-2929 (Fab, V domains shown, Fab; also called Fv-2929) VH: EVQLVESGGGLVQPGGSLRLSCAASGFNISYYYIHWVRQAPGKGLEWVASIYPSSSSTSYADSVKGRFTISADTSKNTAYLQMNSLRAEDTAVYYCARGAMDYWGQGTLVTVSS VL: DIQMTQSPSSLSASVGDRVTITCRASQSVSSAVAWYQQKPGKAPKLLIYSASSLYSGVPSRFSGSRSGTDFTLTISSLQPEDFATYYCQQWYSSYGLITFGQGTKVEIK	2.84
Fab-2930 (Fab, V domains shown, Fab; also called Fv-2930) VH: EVQLVESGGGLVQPGGSLRLSCAASGFNLSYYYIHWVRQAPGKGLEWVASIYPYSGSTSYADSVKGRFTISADTSKNTAYLQMNSLRAEDTAVYYCARGALDYWGQGTLVTVSS VL: DIQMTQSPSSLSASVGDRVTITCRASQSVSSAVAWYQQKPGKAPKLLIYSASSLYSGVPSRFSGSRSGTDFTLTISSLQPEDFATYYCQQWYGPYLITFGQGTKVEIK	3.79
Fab-2936 (Fab, V domains shown, Fab; also called Fv-2936) VH: EVQLVESGGGLVQPGGSLRLSCAASGFNISYYYMHWVRQAPGKGLEWVASIYSSSGSTSYADSVKGRFTISADTSKNTAYLQMNSLRAEDTAVYYCARAAMDYWGQGTLVTVSS VL: DIQMTQSPSSLSASVGDRVTITCRASQSVSSAVAWYQQKPGKAPKLLIYSASSLYSGVPSRFSGSRSGTDFTLTISSLQPEDFATYYCQQWYAASLITFGQGTKVEIK	2.57
Fab-2923 (Fab, V domains shown, Fab; also called Fv-2923) VH: EVQLVESGGGLVQPGGSLRLSCAASGFNLYYYYMHWVRQAPGKGLEWVASIYSSSGSTSYADSVKGRFTISADTSKNTAYLQMNSLRAEDTAVYYCARGAMDYWGQGTLVTVSS VL: DIQMTQSPSSLSASVGDRVTITCRASQSVSSAVAWYQQKPGKAPKLLIYSASSLYSGVPSRFSGSRSGTDFTLTISSLQPEDFATYYCQQWYGYSALITFGQGTKVEIK	4.33
Fab-2902 (Fab, V domains shown, Fab; also called Fv-2902) VH: EVQLVESGGGLVQPGGSLRLSCAASGFNISYYYIHWVRQAPGKGLEWVASISSSSSSTSYADSVKGRFTISADTSKNTAYLQMNSLRAEDTAVYYCARGALDYWGQGTLVTVSS VL: DIQMTQSPSSLSASVGDRVTITCRASQSVSSAVAWYQQKPGKAPKLLIYSASSLYSGVPSRFSGSRSGTDFTLTISSLQPEDFATYYCQQWYAFGALITFGQGTKVEIK	4

meta.source: patent US20210253718A1
